For Human immunodeficiency virus type 1 protease (Human immunodeficiency virus 1), measured pKi is reported for the entries below.
To interpret pKi, take it as minus log10 of a concentration measured in moles per litre.

Below, 4 compounds whose answers are already recorded.
- structure string: "CN(Cc1ccccn1)C(=O)[C@H]1[C@H](C(=O)N[C@@H](Cc2ccccc2)[C@@H](O)[C@H](O)[C@H](Cc2ccccc2)NC(=O)[C@H]2[C@H](C(=O)N(C)Cc3ccccn3)C2(C)C)C1(C)C"
  pKi: 7.10
- structure string: "C[C@H]1[C@@H](C(=O)NCc2ccccc2)[C@@H]1C(=O)N[C@@H](Cc1ccccc1)[C@@H](O)[C@H](O)[C@H](Cc1ccccc1)NC(=O)[C@@H]1[C@@H](C)[C@H]1C(=O)NCc1ccccc1"
  pKi: 9.80
- structure string: "CC(C)[C@H](NC(=O)N(C)Cc1ccccn1)C(=O)N[C@@H](Cc1ccccc1)[C@@H](O)[C@H](O)[C@H](Cc1ccccc1)NC(=O)[C@@H](NC(=O)N(C)Cc1ccccn1)C(C)C"
  pKi: 9.96
- structure string: "C[C@@H]1[C@@H](C(=O)NCc2ccccc2)[C@@H]1C(=O)N[C@@H](Cc1ccccc1)[C@@H](O)[C@H](O)[C@H](Cc1ccccc1)NC(=O)[C@@H]1[C@H](C)[C@H]1C(=O)NCc1ccccc1"
  pKi: 9.33

Asked: pKi of CC1(C)[C@@H](C(=O)NCc2ccccc2)[C@@H]1C(=O)N[C@@H](Cc1ccccc1)[C@@H](O)[C@H](O)[C@H](Cc1ccccc1)NC(=O)[C@H]1[C@H](C(=O)NCc2ccccc2)C1(C)C on Human immunodeficiency virus type 1 protease (Human immunodeficiency virus 1)?
Given back: 9.51
